Here the recorded PBM 8-mer E-score is given for each entry.
System: MvaT
Assay: PBM 8-mer E-score (mean of HK and ME arrays) (E-score (dimensionless, -0.5 to 0.5)); higher = stronger relative binding preference
Whole data set: some 33,000 sequences, median “E-score (dimensionless, -0.5 to 0.5)” near -0.058, cut for the highest 2% near 0.35. The entries come from a sample that favours the highest values as a whole.
Measured attribute: PBM 8-mer E-score

INSERT INTO measurements (construct_sequence, target, endpoint_result) VALUES
  ('ATATAAAA', 'MvaT', 0.431),
  ('CTCGTCGC', 'MvaT', -0.208),
  ('TGCGGAAA', 'MvaT', 0.107),
  ('CTTTTGGC', 'MvaT', -0.0767),
  ('GACCACCC', 'MvaT', -0.296),
  ('AATCATAA', 'MvaT', 0.306),
  ('CTATATTA', 'MvaT', 0.454),
  ('GGGTATTA', 'MvaT', 0.288),
  ('GCTAGAGA', 'MvaT', -0.188),
  ('ATCTATTA', 'MvaT', 0.301),
  ('ATGATCAC', 'MvaT', -0.0926);

----------
Tested on: MvaT
Assay: PBM 8-mer E-score (mean of HK and ME arrays) (E-score (dimensionless, -0.5 to 0.5)); higher = stronger relative binding preference
Over roughly 33,000 sequences, “E-score (dimensionless, -0.5 to 0.5)” has its median near -0.058; the highest 2% begin near 0.35. Many of the other results were omitted from the sample, so the highest values are more common in it than they were.
Measured attribute: PBM 8-mer E-score

INSERT INTO assay_data (construct_sequence, endpoint_result) VALUES
  ('AGTAGAGA', 0.0385),
  ('ATTATAAC', 0.415),
  ('CTAAGTTC', 0.232),
  ('CATAAATC', 0.163),
  ('ATCAGTCG', -0.0941),
  ('AGATCTCG', -0.173),
  ('AGTAAATA', 0.361),
  ('AATTGGTG', 0.0491),
  ('GAGAGGCC', -0.32),
  ('AATGTAAC', 0.267),
  ('GATAAATC', 0.137),
  ('AGAAGTTC', 0.223),
  ('ATAAGTTG', 0.342),
  ('ATATCGTA', 0.207),
  ('ATAAGTGC', 0.178),
  ('AGCGGGAT', -0.138),
  ('TATAAAGA', 0.327),
  ('TATAAATA', 0.426),
  ('CTTCCCCC', -0.176),
  ('GGCGTGTA', -0.134),
  ('ATAAAAAA', 0.387),
  ('CACTCCTG', -0.121),
  ('ATAAGTTA', 0.441),
  ('ATTAAAAA', 0.321),
  ('AAGGAATG', 0.0374),
  ('AATTTCCC', 0.207),
  ('AAATAGGA', -0.0215),
  ('CTAAGTTA', 0.352),
  ('AGTGTTTC', 0.161),
  ('ACTGTAAA', 0.266),
  ('ATTATAGC', 0.282),
  ('CATAAATA', 0.358),
  ('GATAAAGA', 0.271),
  ('CTCATAAC', -0.0784),
  ('ACTGTAAC', 0.246),
  ('GTTATAAC', 0.434),
  ('ACTGTAAT', 0.351),
  ('ACCCTTCC', -0.184),
  ('AATGGGGT', 0.0941),
  ('AGTCAGAG', -0.21),
  ('AGTGCTAT', 0.172),
  ('GTAAGTTA', 0.396),
  ('GCGGAGGA', -0.291),
  ('ATAAAAAG', 0.348),
  ('GTGGCCAA', -0.191),
  ('CGTAAATA', 0.236);

----------
System: MvaT
Experiment: PBM 8-mer E-score (mean of HK and ME arrays) (E-score (dimensionless, -0.5 to 0.5)); higher = stronger relative binding preference
Whole data set: some 33,000 sequences, median “E-score (dimensionless, -0.5 to 0.5)” near -0.058, cut for the highest 2% near 0.35. The sample as a whole holds a higher share of the highest values than the screen did.
Measured attribute: PBM 8-mer E-score

INSERT INTO measurements (construct_sequence, measured_attribute, endpoint_result) VALUES
  ('CAATTATC', 'PBM 8-mer E-score', 0.264),
  ('ACGCGGCG', 'PBM 8-mer E-score', -0.275),
  ('TTTTAAAA', 'PBM 8-mer E-score', 0.409),
  ('CATTGTAC', 'PBM 8-mer E-score', 0.151),
  ('CTAATATA', 'PBM 8-mer E-score', 0.434),
  ('GGGTTCAC', 'PBM 8-mer E-score', -0.111),
  ('GCGGGTTA', 'PBM 8-mer E-score', 0.0558),
  ('AGTTAAAG', 'PBM 8-mer E-score', 0.209),
  ('CTAAAATC', 'PBM 8-mer E-score', 0.148),
  ('ACAATTTA', 'PBM 8-mer E-score', 0.353),
  ('AACTCTGC', 'PBM 8-mer E-score', 0.143),
  ('GTAAAATA', 'PBM 8-mer E-score', 0.345),
  ('CCAAGTTC', 'PBM 8-mer E-score', 0.0376),
  ('ATAAAATC', 'PBM 8-mer E-score', 0.193),
  ('CCTGGGCC', 'PBM 8-mer E-score', -0.238),
  ('GAGCCATA', 'PBM 8-mer E-score', -0.0175),
  ('CGTTAAAA', 'PBM 8-mer E-score', 0.295),
  ('GCTCGAGA', 'PBM 8-mer E-score', -0.152),
  ('ATAATATA', 'PBM 8-mer E-score', 0.475),
  ('TAATTATA', 'PBM 8-mer E-score', 0.462),
  ('CTAAAATA', 'PBM 8-mer E-score', 0.353),
  ('CCAGGCAC', 'PBM 8-mer E-score', -0.347),
  ('AGCCTTCG', 'PBM 8-mer E-score', -0.32),
  ('AACGTAGT', 'PBM 8-mer E-score', 0.000134),
  ('GAAAAATA', 'PBM 8-mer E-score', 0.317),
  ('AGCAAGAG', 'PBM 8-mer E-score', -0.0917),
  ('GTAATATA', 'PBM 8-mer E-score', 0.436),
  ('GAATTACA', 'PBM 8-mer E-score', 0.175),
  ('TAACCTTA', 'PBM 8-mer E-score', 0.0355),
  ('ACAATTAA', 'PBM 8-mer E-score', 0.347),
  ('CTGATACA', 'PBM 8-mer E-score', 0.0751),
  ('AAATTATG', 'PBM 8-mer E-score', 0.233),
  ('CAAAAATC', 'PBM 8-mer E-score', 0.0508),
  ('TAATTCTA', 'PBM 8-mer E-score', 0.278),
  ('AGGCAGAA', 'PBM 8-mer E-score', -0.226),
  ('CTTTAAAA', 'PBM 8-mer E-score', 0.287),
  ('GTTAAAAA', 'PBM 8-mer E-score', 0.239),
  ('GAATTATC', 'PBM 8-mer E-score', 0.147),
  ('AGAAACGG', 'PBM 8-mer E-score', -0.0989),
  ('CAATTATA', 'PBM 8-mer E-score', 0.414),
  ('ATAATCTA', 'PBM 8-mer E-score', 0.344),
  ('GTTTAAAA', 'PBM 8-mer E-score', 0.293),
  ('AGGGCCTG', 'PBM 8-mer E-score', -0.226),
  ('GCCTAATA', 'PBM 8-mer E-score', 0.133),
  ('ATAAAATA', 'PBM 8-mer E-score', 0.427),
  ('TGTTAAAA', 'PBM 8-mer E-score', 0.25);

----------
Tested on: MvaT
Test: PBM 8-mer E-score (mean of HK and ME arrays) (E-score (dimensionless, -0.5 to 0.5)); higher = stronger relative binding preference
Whole data set: some 33,000 sequences, median “E-score (dimensionless, -0.5 to 0.5)” near -0.058, cut for the highest 2% near 0.35. What follows is part of a selection rich in the highest values, with near analogues and random picks from the rest.
Decision: PBM 8-mer E-score >= 0.1 yields yes, all other cases yield no.

INSERT INTO measurements (construct_sequence, target, category) VALUES
  ('TTGATAAA', 'MvaT', 'yes'),
  ('ATTAACAG', 'MvaT', 'yes'),
  ('AGATACGG', 'MvaT', 'no'),
  ('GCTATTAA', 'MvaT', 'yes'),
  ('TATAACGA', 'MvaT', 'yes'),
  ('CATAACAA', 'MvaT', 'no'),
  ('ATATTTAA', 'MvaT', 'yes'),
  ('ATTATGAA', 'MvaT', 'yes'),
  ('ATCTACTG', 'MvaT', 'no'),
  ('ATCATTAA', 'MvaT', 'yes'),
  ('AACCCGTC', 'MvaT', 'no'),
  ('ATCCCTTC', 'MvaT', 'no'),
  ('CTATTAAG', 'MvaT', 'yes'),
  ('GCTGTAAC', 'MvaT', 'no'),
  ('TTCATAAA', 'MvaT', 'yes'),
  ('AACCACTC', 'MvaT', 'no'),
  ('GATAGAAA', 'MvaT', 'yes'),
  ('AAGTTAGT', 'MvaT', 'yes'),
  ('AGGCACCT', 'MvaT', 'no'),
  ('ACATATAC', 'MvaT', 'yes'),
  ('GCATTAAC', 'MvaT', 'yes'),
  ('CTTATTCA', 'MvaT', 'yes'),
  ('CTTATCGC', 'MvaT', 'no'),
  ('ATTATAAG', 'MvaT', 'yes'),
  ('GTATTAAC', 'MvaT', 'yes'),
  ('ACTATTAT', 'MvaT', 'yes'),
  ('ATATTTAG', 'MvaT', 'yes'),
  ('AATTGCAA', 'MvaT', 'yes'),
  ('CAGTATAG', 'MvaT', 'no'),
  ('ACGATTAT', 'MvaT', 'yes'),
  ('TTGTACAA', 'MvaT', 'yes'),
  ('GTGTGGTA', 'MvaT', 'yes'),
  ('CTCATTAA', 'MvaT', 'yes'),
  ('GGATTAAC', 'MvaT', 'yes'),
  ('AATAACCG', 'MvaT', 'yes'),
  ('ACATATAA', 'MvaT', 'yes'),
  ('GCACTTCA', 'MvaT', 'no'),
  ('CTATTTAC', 'MvaT', 'yes'),
  ('GATAACGA', 'MvaT', 'no'),
  ('ATATTTAC', 'MvaT', 'yes'),
  ('CAGTTATG', 'MvaT', 'yes'),
  ('GTTATTAA', 'MvaT', 'yes'),
  ('ATTATTAA', 'MvaT', 'yes'),
  ('GTTATTCA', 'MvaT', 'yes'),
  ('ATACATCA', 'MvaT', 'yes'),
  ('ATATTAAG', 'MvaT', 'yes');

Values compiled from the supplement of paper PMC4466236.
